Listing of recorded %Inh by entry.
Test system: MEK1
Construct: gene MAP2K1
test.conditions: concentration: 1 μM, replicates: in singlicate; n = 1
Answer in %, number only, no unit symbol.

[[record]]
compound = "COC(=O)c1c(-c2ccccc2)c2cc(C)ccc2c(=O)n1Cc1ccccc1"
readout_units = "%"
test_result = 0


### Prompt Given Cn1c(=O)c(F)c(Nc2ccc(I)cc2F)c2c(=O)n(OC[C@H](O)CO)cnc21 , state its recorded %Inh.
### Response 99.6

### Prompt Given Nc1ncnc2c1ncn2-c1cccc(F)c1 , state its recorded %Inh.
### Response 34

----------
Test system: JNK1
Construct: gene MAPK8
test.conditions: concentration: 1 μM, replicates: in singlicate; n = 1
Threshold check on %Inh: strictly below 20% is rule met; on or above 20% is rule not met.

A selection of reference data follows.
[[record]]
compound = "Cc1ccccc1COc1cc(-n2cnc3cc(Cl)ccc32)sc1C(N)=O"
label_value = "rule not met"

[[record]]
compound = "COc1cc2ncn(-c3cc(OCc4ccncc4)c(C(N)=O)s3)c2cc1OC"
label_value = "rule met"

[[record]]
compound = "Cc1ccc(Oc2ccc(Nc3ncnc4cc[nH]c34)cc2C)cn1"
label_value = "rule not met"


### Prompt Consider the molecule Cc1nn2c(=O)cc(N3CCOCC3)nc2n1Cc1cccc(Cl)c1Cl . Is its %Inh strictly less than 20%?
### Response rule met

### Prompt Consider the molecule CN(C)c1cc(-c2ccc3c(N)n[nH]c3c2)nc(N)n1 . Is its %Inh strictly less than 20%?
### Response rule met

### Prompt Consider the molecule Nc1ncnc2c1ncn2-c1cccc(F)c1 . Is its %Inh strictly less than 20%?
### Response rule not met

### Prompt Consider the molecule CCn1c(-c2ccoc2)nc2cnccc21 . Is its %Inh strictly less than 20%?
### Response rule met

### Prompt Consider the molecule COc1cc2nccc(Nc3ccc(OCc4ccc(NC(C)=O)cc4)cc3)c2cc1OC.Cl . Is its %Inh strictly less than 20%?
### Response rule met

### Prompt Consider the molecule COc1ccc(-n2cnc3c(N)ncnc32)cc1 . Is its %Inh strictly less than 20%?
### Response rule met

### Prompt Consider the molecule CCn1c(-c2nonc2N)nc2ccccc21 . Is its %Inh strictly less than 20%?
### Response rule not met

----------
Tested on: GRK3
Construct: gene ADRBK2
test.conditions: concentration: 1 μM, replicates: in singlicate; n = 1
Listing of recorded %Inh by entry.
Answer in %, number only, no unit symbol.

Below: 5 molecules and their reported %Inh.
[[record]]
molecule = "CCn1c(-c2nonc2N)nc2ccccc21 [SB-693162/GW549034]"
test_result = 14

[[record]]
molecule = "C[C@@H]1CC[C@H](C(=O)NC2CCCCC2)CN1c1cc(-c2ccc3c(N)n[nH]c3c2)nc(N)n1 [GSK2291363]"
test_result = 32

[[record]]
molecule = "Fc1cccc(CSc2nnc(-c3ccc4c(c3)CCO4)o2)c1"
test_result = 10

[[record]]
molecule = "CCCC(=O)Nc1n[nH]c2ncc(-c3cccc4ccccc34)cc12 [SB-642057]"
test_result = 0

[[record]]
molecule = "Cc1ccccc1COc1cc(-n2cnc3cc(Cl)ccc32)sc1C(N)=O [GW813349]"
test_result = 0


### Prompt Given COc1cccc(-n2cnc3c(N)ncnc32)c1 [SKF-97416] , state its recorded %Inh.
### Response 11

### Prompt Given Cc1ccc(-c2ccc3c(ccc4sc5c(c43)NC[C@@H](C)N=C5N(C)C)n2)cn1 , state its recorded %Inh.
### Response 1

### Prompt Given COc1ccc(-c2cc3c(C)nc(N)nc3n([C@H]3CC[C@H](OCCO)CC3)c2=O)cn1 , state its recorded %Inh.
### Response 0

### Prompt Given COc1cc(Nc2ccnc3ccc(C(F)(F)F)cc23)cc(OC)c1OC [GW577382] , state its recorded %Inh.
### Response 25

----------
Listing of recorded %Inh by entry.
System: PHKG1
test.conditions: concentration: 1 μM, replicates: in singlicate; n = 1
Answer in %, number only, no unit symbol.

Below: 6 compounds and their reported %Inh.
[[record]]
compound = "CCC(=O)c1c(-c2ccccc2)c2cc(Cl)ccc2c(=O)n1Cc1cc(S(C)(=O)=O)n(CC(F)F)n1"
measure = "%Inh"
test_result = 0

[[record]]
compound = "C[C@@H]1CC[C@H](C(=O)NC2CCCCC2)CN1c1cc(-c2ccc3c(N)n[nH]c3c2)nc(N)n1 [GSK2291363]"
measure = "%Inh"
test_result = 0

[[record]]
compound = "COc1cc2ncn(-c3cc(OCCCc4ccccc4)c(C(N)=O)s3)c2cc1OC [GSK205189]"
measure = "%Inh"
test_result = 2

[[record]]
compound = "COc1cccc(C2=C(N(C)c3ccccc3)C(=O)NC2=O)c1 [SB-334865]"
measure = "%Inh"
test_result = 0

[[record]]
compound = "Nc1ncnc2c1ncn2-c1ccc(Cl)cc1 [AH2635]"
measure = "%Inh"
test_result = 0

[[record]]
compound = "COc1ccc(CNC(=O)NC2CCN(c3ccnc(Nc4ccc(F)cc4)n3)C2)cc1 (stereo not drawn) [GSK1379706]"
measure = "%Inh"
test_result = 7


### Prompt Given O=C(Nc1n[nH]c2nc(-c3ccccc3)c(Br)cc12)C1CC1 [SB-708998] , state its recorded %Inh.
### Response 0

### Prompt Given CCS(=O)c1ccc(-c2coc3ccc(-c4nnc(C)o4)cc23)cc1 (stereo not drawn) , state its recorded %Inh.
### Response 0

### Prompt Given COc1ccc(-n2cnc3c(N)ncnc32)cc1 [SKF-97236] , state its recorded %Inh.
### Response 0

----------
Listing of recorded %Inh by entry.
Tested on: MKK7
test.conditions: concentration: 1 μM, replicates: in singlicate; n = 1
Answer in %, number only, no unit symbol.

Below: 4 compounds and their reported %Inh.
[[record]]
compound = "CCn1c(-c2nonc2N)nc2ccccc21"
assayed_target = "MKK7"
test_result = 0

[[record]]
compound = "Nc1nccc2scc(-c3ccc4c(c3)CCN4C(=O)Cc3ccccc3)c12"
assayed_target = "MKK7"
test_result = 9

[[record]]
compound = "CCc1nc(-c2cccc(C)c2)c(-c2ccncc2)s1"
assayed_target = "MKK7"
test_result = 0

[[record]]
compound = "COc1cc2ncn(-c3cc(OCc4ccc(S(C)(=O)=O)cc4)c(C(N)=O)s3)c2cc1OC"
assayed_target = "MKK7"
test_result = 6


Now examine the next entry.
### Prompt Write down the reported %Inh of COc1ccc(-c2coc3ccc(-c4nnc(SCc5cccc(C#N)c5)o4)cc23)cc1 , test system: MKK7.
### Response 17

----------
# Kd measurements, system: JAK1(JH2domain-pseudokinase);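 note: kd values determined as follow-up on hits from a single-replicate KINOMEscan panel screen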
Answer in nM, number only, no unit symbol.

[[record]]
molecule = "Cc1cc(Nc2nc(-c3cccc(C)n3)nc3ccccc23)ccn1 [GW872411]"
assayed_target = "JAK1(JH2domain-pseudokinase)"
measure = "Kd"
readout_units = "nM"
test_result = 410


### Prompt Given Nc1nc(N)c2nc(-c3ccccc3)[nH]c2n1 [SKF-12778] , state its recorded Kd.
### Response 150

----------
Listing of recorded %Inh by entry.
Tested on: MLCK
Construct: gene MYLK3
test.conditions: concentration: 1 μM, replicates: in singlicate; n = 1
Answer in %, number only, no unit symbol.

Below: 2 compounds and their reported %Inh.
[[record]]
compound = "Nc1n[nH]c2nnc(-c3ccccc3)c(-c3ccccc3)c12"
measure = "%Inh"
test_result = 0

[[record]]
compound = "COc1cc(Nc2ccnc3ccc(C(F)(F)F)cc23)cc(OC)c1OC"
measure = "%Inh"
test_result = 0


### Prompt Given COc1cc2ncn(-c3cc(OCc4ccncc4Br)c(C(N)=O)s3)c2cc1OC , state its recorded %Inh.
### Response 0

### Prompt Given COc1ccc(CNC(=O)NC2CCN(c3ccnc(Nc4ccc(F)cc4)n3)C2)cc1 (centres unmarked) , state its recorded %Inh.
### Response 8

### Prompt Given COc1ccc(-c2coc3ccc(-c4nnc(SCc5cccc(C#N)c5)o4)cc23)cc1 , state its recorded %Inh.
### Response 2

----------
System: SRPK2
test.conditions: concentration: 1 μM, replicates: in singlicate; n = 1
measure: %Inh
Please give the number followed by its unit.

Below: 3 compounds and their reported %Inh.
[[record]]
compound = "O=C(Nc1ccc2c(c1)OCO2)NC1CCN(c2ccnc(NCc3ccc(F)cc3)n2)CC1"
test_result = "0%"

[[record]]
compound = "CCc1ccc(-c2ccc3c(c2)-c2nn(C)cc2S(=O)(=O)N3C)cc1"
test_result = "0%"

[[record]]
compound = "Cc1nc(N(C)[C@H]2CN(C(=O)CC#N)CC[C@H]2C)c2cc[nH]c2n1"
test_result = "0%"


### Prompt Given Nc1ncnc2c1ncn2-c1cccc(F)c1 , state its recorded %Inh.
### Response 0%

### Prompt Given Cc1cccc(-c2nc(Nc3ccc4c(cnn4C)c3)c3ccccc3n2)n1 , state its recorded %Inh.
### Response 0%

### Prompt Given CCc1nc(-c2cccc(C)c2)c(-c2ccncc2)s1 , state its recorded %Inh.
### Response 0%

### Prompt Given CCC(=O)c1c(-c2ccccc2)c2cc(Cl)ccc2c(=O)n1Cc1cc(C(=O)NC2CC2)n(C)n1 , state its recorded %Inh.
### Response 19%

### Prompt Given CCC(=O)c1c(-c2ccccc2)c2cc(Cl)ccc2c(=O)n1Cc1cc(S(C)(=O)=O)n(CC(N)=O)n1 , state its recorded %Inh.
### Response 0%

### Prompt Given Cc1ccc(-c2ccc3c(ccc4sc5c(c43)NC[C@@H](C)N=C5N(C)C)n2)cn1 , state its recorded %Inh.
### Response 6%
